- System: NGF (nerve growth factor) (Homo sapiens, UniProt P01138 P01138:122-241)
- Sequence (P01138 122-241, one chain of several): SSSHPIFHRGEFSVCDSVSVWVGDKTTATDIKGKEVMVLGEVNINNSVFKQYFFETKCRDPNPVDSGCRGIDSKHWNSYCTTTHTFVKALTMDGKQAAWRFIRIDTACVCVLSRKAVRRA
- Experiment description: cell_activity; neurite; TF-1 0.043
- Assay conditions: tags: R&D Systems; chain copies: 2
Readout label: pIC50
# pIC50: negative log10 of molar concentration; output just the value

Input line: Kindly indicate its recorded pIC50. Item: GGGUCCUGGAUAAGAGUUUCCGUCUCGUAUCCUGUUACCC (ssRNA, as 82(1) except 2'-OMe U35) [SEQ ID NO: 82(15)]
Output line: 9.90
